- System: capacitative calcium entry in cell strain deficient of IP3 receptors produced from DT40
- test method notes: Inhibitory activity against capacitative calcium entry (fura-2 fluorescence ratio)
- Type: cell-based, chickens
- conditions: Gallus gallus, DT40
measurement kind: pIC50
pIC50 is a log-scale quantity: -log10 of the concentration expressed in molar.

Form field: reported pIC50 of NCCOB(c1ccccc1)c1ccccc1 [Comparative Compound, 2-aminoethyl diphenylborinate, reference compound]
5.30

====

- measured on: calcium release by IP3 (IP3 receptor) (Mus musculus)
- Construct: from tissue; host or cells: mouse cerebellum microsomes
- Sequence (P11881 whole entry): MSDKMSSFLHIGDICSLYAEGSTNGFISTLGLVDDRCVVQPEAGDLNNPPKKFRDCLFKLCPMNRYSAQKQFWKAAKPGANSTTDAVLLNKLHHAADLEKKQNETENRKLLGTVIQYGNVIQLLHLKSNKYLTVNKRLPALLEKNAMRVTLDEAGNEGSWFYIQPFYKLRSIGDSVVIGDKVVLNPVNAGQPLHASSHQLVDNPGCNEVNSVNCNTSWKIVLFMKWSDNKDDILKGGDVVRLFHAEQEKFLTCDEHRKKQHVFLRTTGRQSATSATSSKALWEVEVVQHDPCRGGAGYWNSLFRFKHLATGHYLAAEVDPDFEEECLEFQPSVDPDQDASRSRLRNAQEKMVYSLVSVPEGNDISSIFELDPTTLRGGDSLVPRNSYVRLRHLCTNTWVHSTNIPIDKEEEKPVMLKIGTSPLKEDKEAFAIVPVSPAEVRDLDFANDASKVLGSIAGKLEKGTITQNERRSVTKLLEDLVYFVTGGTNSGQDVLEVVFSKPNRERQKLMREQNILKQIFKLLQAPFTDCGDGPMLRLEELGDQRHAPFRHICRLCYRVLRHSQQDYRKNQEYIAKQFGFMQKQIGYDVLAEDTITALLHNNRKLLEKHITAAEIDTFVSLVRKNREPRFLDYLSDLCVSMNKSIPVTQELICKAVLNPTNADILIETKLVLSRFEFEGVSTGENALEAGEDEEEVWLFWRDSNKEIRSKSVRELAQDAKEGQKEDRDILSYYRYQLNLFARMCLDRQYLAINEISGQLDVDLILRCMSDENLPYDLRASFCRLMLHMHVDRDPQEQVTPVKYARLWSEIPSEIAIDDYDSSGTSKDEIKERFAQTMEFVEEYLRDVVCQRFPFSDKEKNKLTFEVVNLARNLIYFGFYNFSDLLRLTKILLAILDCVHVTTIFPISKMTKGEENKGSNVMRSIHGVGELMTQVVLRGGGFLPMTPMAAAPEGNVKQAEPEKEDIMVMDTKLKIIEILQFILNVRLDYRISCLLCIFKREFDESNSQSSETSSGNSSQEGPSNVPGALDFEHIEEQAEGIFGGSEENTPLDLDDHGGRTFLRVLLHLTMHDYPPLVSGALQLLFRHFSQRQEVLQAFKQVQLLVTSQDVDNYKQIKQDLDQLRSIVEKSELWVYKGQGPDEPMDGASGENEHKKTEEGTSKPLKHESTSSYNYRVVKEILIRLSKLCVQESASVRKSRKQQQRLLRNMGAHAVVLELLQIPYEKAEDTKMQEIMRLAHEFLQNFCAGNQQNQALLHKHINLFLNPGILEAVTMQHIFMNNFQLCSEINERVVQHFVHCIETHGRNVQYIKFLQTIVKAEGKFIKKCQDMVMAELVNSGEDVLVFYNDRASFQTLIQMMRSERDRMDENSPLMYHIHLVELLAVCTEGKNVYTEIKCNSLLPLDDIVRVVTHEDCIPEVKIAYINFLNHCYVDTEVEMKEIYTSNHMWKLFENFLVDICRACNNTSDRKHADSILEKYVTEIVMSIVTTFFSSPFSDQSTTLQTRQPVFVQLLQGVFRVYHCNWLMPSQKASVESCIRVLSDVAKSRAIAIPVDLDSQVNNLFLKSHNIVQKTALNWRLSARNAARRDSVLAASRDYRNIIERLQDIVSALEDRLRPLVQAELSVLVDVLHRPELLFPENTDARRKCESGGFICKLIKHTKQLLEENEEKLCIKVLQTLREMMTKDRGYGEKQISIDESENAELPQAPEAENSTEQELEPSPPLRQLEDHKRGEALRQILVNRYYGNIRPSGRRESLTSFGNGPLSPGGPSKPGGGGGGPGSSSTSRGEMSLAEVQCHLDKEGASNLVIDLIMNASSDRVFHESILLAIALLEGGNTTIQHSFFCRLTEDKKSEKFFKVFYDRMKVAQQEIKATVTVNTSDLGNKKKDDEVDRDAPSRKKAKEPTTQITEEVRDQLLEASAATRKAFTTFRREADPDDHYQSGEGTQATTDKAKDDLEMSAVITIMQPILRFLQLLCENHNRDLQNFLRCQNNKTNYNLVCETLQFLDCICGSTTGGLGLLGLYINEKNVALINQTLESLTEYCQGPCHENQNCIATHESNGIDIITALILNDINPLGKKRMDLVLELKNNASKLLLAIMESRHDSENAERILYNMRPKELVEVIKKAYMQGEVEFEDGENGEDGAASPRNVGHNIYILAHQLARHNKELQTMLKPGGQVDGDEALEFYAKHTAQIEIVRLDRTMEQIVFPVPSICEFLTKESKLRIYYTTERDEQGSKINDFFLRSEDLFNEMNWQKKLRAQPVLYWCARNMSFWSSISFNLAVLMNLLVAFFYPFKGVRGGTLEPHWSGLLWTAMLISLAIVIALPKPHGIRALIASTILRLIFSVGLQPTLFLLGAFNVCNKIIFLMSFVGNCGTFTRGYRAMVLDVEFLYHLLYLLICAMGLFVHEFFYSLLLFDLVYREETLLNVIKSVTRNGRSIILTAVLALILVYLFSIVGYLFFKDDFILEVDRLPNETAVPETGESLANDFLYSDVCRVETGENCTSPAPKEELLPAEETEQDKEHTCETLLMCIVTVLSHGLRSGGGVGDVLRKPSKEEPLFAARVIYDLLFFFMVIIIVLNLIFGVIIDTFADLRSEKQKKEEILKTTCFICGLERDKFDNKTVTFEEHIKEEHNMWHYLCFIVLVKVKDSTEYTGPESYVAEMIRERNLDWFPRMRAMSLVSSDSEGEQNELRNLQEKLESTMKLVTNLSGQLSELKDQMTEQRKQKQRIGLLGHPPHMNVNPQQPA
- test method notes: Inhibitory activity against calcium release by IP3 (cerebellum microsomes, fura2)
- Type: biochemical
measurement kind: IC50 (µM)
# number only, unit µM dropped from output

Form field: reported IC50 of NCCOB(c1ccccc1)c1ccccc1 [Comparative Compound, 2-aminoethyl diphenylborinate, reference compound]
20
